system: Septoria nodorum; test: Test C: wheat glume blotch, preventive spray on wheat seedlings; format: in vivo; details: 200 ppm; 100 = 100% disease control, 0 = no control relative to controls
Consider the following compounds and their measured Test C disease control rating readings.

compound | Test C disease control rating
Cc1cc(Cl)cc(Cl)c1Nc1cc(-c2ccnc(NC3CCOCC3)n2)ccn1 [Compound 100] | 98%
COC[C@H](C)Nc1nccc(-c2ncnc(Nc3ccnc(F)c3)n2)n1 [Compound 31] | 100%
COC[C@H](C)Nc1nccc(-c2ncnc(Nc3cccc(C)c3)n2)n1 [Compound 19] | 100%
COC[C@H](C)Nc1nccc(-c2ncnc(Nc3cccc(I)c3)n2)n1 [Compound 12] | 100%
CC(C)(C)Nc1nccc(-c2ccnc(Nc3cccc(F)c3)c2)n1 [Compound 45] | 98%
C[C@H](CO)Nc1nccc(-c2ccnc(Nc3cccc(F)c3)c2)n1 [Compound 57] | 51%
CC(C)Nc1nccc(-c2ccnc(Nc3cccc(F)c3)c2)n1 [Compound 60] | 100%
Fc1cccc(Nc2cc(-c3ccnc(N[C@H]4CCOC4)n3)ccn2)c1 [Compound 71] | 99%
COC[C@H](C)Nc1nccc(-c2ncnc(Nc3cccc(C#N)c3)n2)n1 [Compound 18] | 100%

----------
system: Fusarium graminearum; assay: whole plant or invertebrate; format: in vivo; settings: Fusarium graminearum, in Triticum aestivum, 192 h, read-out: Test E disease control rating

compound | readout-unit | pest or weed control at 200 ppm
COCC(C)Nc1nccc(-c2ncnc(Nc3cccc(Cl)c3)n2)n1 (stereo not drawn) | % | 98
COCC(C)Nc1cc(-c2ccnc(Nc3c(C)cccc3Cl)n2)ncn1 (stereo not drawn) | % | 0
COC[C@H](C)Nc1nccc(-c2ncnc(Nc3cccc(F)c3)n2)n1 | % | 98
COC[C@H](C)Nc1nccc(-c2ncnc(Nc3ccc(C#N)nc3)n2)n1 | % | 41
COCC(C)Nc1nccc(-c2ccnc(Nc3c(C)cccc3Cl)c2)n1 (stereo not drawn) | % | 93
Fc1cccc(Nc2cc(-c3ccnc(NCC4CCCO4)n3)ccn2)c1 (stereo not drawn) | % | 0
CSCC(C)Nc1nccc(-c2ccnc(Nc3cccc(Cl)c3)c2)n1 (stereo not drawn) | % | 0
COCC(C)Nc1nccc(-c2cc(Nc3cccc(F)c3)ncn2)n1 (stereo not drawn) | % | 0
Clc1cccc(Nc2ncnc(-c3ccnc(NC4CCOCC4)n3)n2)c1 | % | 0
COCC(C)Nc1cc(-c2ccnc(Nc3cccc(Cl)c3)n2)ncn1 (stereo not drawn) | % | 73
Cc1ccc(Nc2cc(-c3ccnc(NC4CCOCC4)n3)ccn2)c(Cl)c1 | % | 27
COC(C)CNc1nccc(-c2ccnc(Nc3cccc(F)c3)c2)n1 (stereo not drawn) | % | 0
Fc1cccc(Nc2cc(-c3ccnc(NC4CCOCC4)n3)ccn2)c1 | % | 0
Fc1cccc(Nc2cc(-c3ccnc(NCC4CCOC4)n3)ccn2)c1 (stereo not drawn) | % | 0
Clc1ccccc1Nc1cc(-c2ccnc(NC3CCOCC3)n2)ccn1 | % | 97
COCC(C)Nc1nccc(-c2ncnc(Nc3cccc(F)c3)n2)n1 (stereo not drawn) | % | 95
Cc1cccc(Cl)c1Nc1nccc(-c2ncnc(NC3CCOCC3)n2)n1 | % | 0
Clc1cccc(Nc2cc(-c3ccnc(NC4CCOCC4)n3)ccn2)c1 | % | 0
Fc1cccc(Nc2cc(-c3ccnc(NC4CCCC4)n3)ccn2)c1 | % | 0
Cc1cccc(Cl)c1Nc1cc(-c2ccnc(NC3CCOCC3)n2)ccn1 | % | 98
COCC(C)Nc1cc(-c2ccnc(Nc3cccc([N+](=O)[O-])c3)n2)ncn1 (stereo not drawn) | % | 89
CSCC(C)Nc1nccc(-c2ccnc(Nc3cccc(F)c3)c2)n1 (stereo not drawn) | % | 0
Cc1cc(Cl)ccc1Nc1cc(-c2ccnc(NC3CCOCC3)n2)ccn1 | % | 0
COC[C@H](C)Nc1nccc(-c2ncnc(Nc3cc(F)cc(F)c3)n2)n1 | % | 99
COCCC(C)Nc1nccc(-c2ccnc(Nc3cccc(F)c3)c2)n1 (stereo not drawn) | % | 0
COCC(C)Nc1cc(-c2ccnc(Nc3cccc(F)c3)n2)ncn1 (stereo not drawn) | % | 32
COCC(C)Nc1nccc(-c2ccnc(Nc3cccc(Cl)c3)c2)n1 (stereo not drawn) | % | 48

----------
system: Alternaria solani; assay: Test H: tomato early blight, preventive spray on seedlings; assay type: in vivo; details: 200 ppm; 100 = 100% disease control, 0 = no control relative to controls
Recorded Test H disease control rating, one value per entry.

compound | Test H disease control rating
COC[C@H](C)Nc1nccc(-c2ncnc(Nc3cccc(Cl)c3)n2)n1 | 98%
COC[C@H](C)Nc1nccc(-c2ncnc(Nc3ccc(C)c(F)c3)n2)n1 | 99%
COC[C@H](C)Nc1nccc(-c2ncnc(Nc3ccc(C)c([N+](=O)[O-])c3)n2)n1 | 91%
COC(C)(C)Nc1nccc(-c2ncnc(Nc3cc(F)cc(F)c3)n2)n1 | 99%
COC[C@H](C)Nc1nccc(-c2ncnc(Nc3cccc(C)c3)n2)n1 | 93%
COC[C@H](C)Nc1nccc(-c2ncnc(Nc3ccccc3F)n2)n1 | 90%
COC[C@H](C)Nc1nccc(-c2ncnc(Nc3cccc(Br)c3)n2)n1 | 98%
Cc1cc(Cl)cc(Cl)c1Nc1cc(-c2ccnc(NC3CCOCC3)n2)ccn1 | 99%
COC[C@H](C)Nc1nccc(-c2ncnc(Nc3ccnc(F)c3)n2)n1 | 92%
Fc1cc(F)cc(Nc2ncnc(-c3ccnc(NC4CCOCC4)n3)n2)c1 | 94%
CC(=O)OCC(C)Nc1nccc(-c2ncnc(Nc3cccc(F)c3)n2)n1 (stereo not shown) | 41%
CC(C)(C)Nc1nccc(-c2ncnc(Nc3cc(F)cc(F)c3)n2)n1 | 94%
COC[C@H](C)Nc1nccc(-c2ncnc(Nc3cc(Cl)cc(Cl)c3)n2)n1 | 85%
COCC(C)(C)Nc1nccc(-c2ncnc(Nc3cccc(F)c3)n2)n1 | 98%
CC(CO)Nc1nccc(-c2ncnc(Nc3cccc(F)c3)n2)n1 (stereo not shown) | 0%
COC[C@H](C)Nc1nccc(-c2ncnc(Nc3ccc(C)c(C)c3)n2)n1 | 100%
COC[C@H](C)Nc1nccc(-c2ncnc(Nc3ccc(Cl)cc3)n2)n1 | 90%
COC[C@H](C)Nc1nccc(-c2ncnc(Nc3ccc(Cl)c(Cl)c3)n2)n1 | 95%
COC[C@H](C)Nc1nccc(-c2ncnc(Nc3cccc(I)c3)n2)n1 | 98%
CC(C)(C)Nc1nccc(-c2ncnc(Nc3cccc(F)c3)n2)n1 | 97%
COC[C@H](C)Nc1nccc(-c2ncnc(Nc3ccc(C)cc3)n2)n1 | 96%
Fc1cccc(Nc2ncnc(-c3ccnc(NC4CC4)n3)n2)c1 | 99%

----------
system: Venturia inaequalis; test: Test O: apple scab, preventive spray on apple seedlings; type: in vivo; details: 100 ppm (100 g/ha, 1000 L/ha), inoculated the following day, 100 = 100% disease control, 0 = no control relative to controls
Below, each of the molecules is paired with its reported Test O disease control rating value.
quantity: Test O disease control rating (%)

molecule | result
COCC(C)Nc1nccc(-c2ncnc(Nc3cccc(F)c3)n2)n1 (stereo not shown) [Compound 2] | 95
COC[C@H](C)Nc1nccc(-c2ccnc(Nc3cccc(F)c3)c2)n1 [Compound 56] | 75
Clc1cccc(Cl)c1Nc1cc(-c2ccnc(NC3CCOCC3)n2)ccn1 [Compound 81] | 69
Fc1cccc(Nc2cc(-c3ccnc(NC4CCOCC4)n3)ccn2)c1 [Compound 67] | 73
COC[C@H](C)Nc1nccc(-c2ncnc(Nc3cc(F)cc(F)c3)n2)n1 [Compound 22] | 99
COC[C@H](C)Nc1nccc(-c2ncnc(Nc3ccc(F)c(Cl)c3)n2)n1 [Compound 23] | 99
COCC(C)Nc1nccc(-c2ncnc(Nc3cccc(Cl)c3)n2)n1 (stereo not shown) [Compound 1] | 78

----------
tested on: Septoria nodorum; assay: Test C: wheat glume blotch, preventive spray on wheat seedlings; format: in vivo; settings: 200 ppm; 100 = 100% disease control, 0 = no control relative to controls

compound | Test C disease control rating, %
COC[C@H](C)Nc1nccc(-c2ncnc(Nc3ccc(F)cc3)n2)n1 [Compound 13] | 100
COC[C@H](C)Nc1nccc(-c2ncnc(Nc3ccc(C)c(F)c3)n2)n1 [Compound 25] | 100
COC[C@H](C)Nc1nccc(-c2ncnc(Nc3cncc(F)c3)n2)n1 [Compound 35] | 98
CC(CO)Nc1nccc(-c2ncnc(Nc3cccc(F)c3)n2)n1 (stereo not drawn) [Compound 7] | 100
COCC(C)Nc1nccc(-c2ccnc(Nc3ccc(C#N)cc3)c2)n1 (stereo not drawn) [Compound 63] | 0
COCC(C)Nc1nccc(-c2ccnc(Nc3c(Cl)cccc3C(F)(F)F)c2)n1 (stereo not drawn) [Compound 97] | 100
COCC(C)(C)Nc1nccc(-c2ncnc(Nc3cc(F)cc(F)c3)n2)n1 [Compound 30] | 100
Cc1ccc2ccccc2c1Nc1cc(-c2ccnc(NC3CCOCC3)n2)ccn1 [Compound 89] | 100
COCC(C)Nc1nccc(-c2ccnc(Nc3ccnc(Cl)c3)c2)n1 (stereo not drawn) [Compound 54] | 64

----------
Reported values of Test R disease control rating for individual entries
test system: Plasmopara viticola; test: Test R: grape downy mildew, preventive spray on grape seedlings; assay type: in vivo; conditions: 100 ppm (100 g/ha, 1000 L/ha), inoculated the following day, 100 = 100% disease control, 0 = no control relative to controls
quantity: Test R disease control rating (%)

molecule | target-entity | quantity | result
COC[C@H](C)Nc1nccc(-c2ncnc(Nc3ccc(C)c(F)c3)n2)n1 | Plasmopara viticola | Test R disease control rating | 86
Clc1cc(Cl)c(Nc2cc(-c3ccnc(NC4CCOCC4)n3)ccn2)c(Cl)c1 | Plasmopara viticola | Test R disease control rating | 99
Fc1cccc(Nc2cc(-c3ccnc(NC4CCOCC4)n3)ccn2)c1 | Plasmopara viticola | Test R disease control rating | 94
COCC(C)Nc1nccc(-c2ncnc(Nc3cccc(F)c3)n2)n1 (stereo not drawn) | Plasmopara viticola | Test R disease control rating | 60
COC[C@H](C)Nc1nccc(-c2ncnc(Nc3cc(F)cc(F)c3)n2)n1 | Plasmopara viticola | Test R disease control rating | 83
COC[C@H](C)Nc1nccc(-c2ncnc(Nc3cccc(C)c3)n2)n1 | Plasmopara viticola | Test R disease control rating | 73
